Origin of measurements: ChEMBL document CHEMBL1961873

# target.or.system: Mitogen-activated protein kinase 11 (Homo sapiens) (UniProt Q15759);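 further: reported values are averaged (mean) percent inhibition of p38beta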
# Sequence (Q15759 whole entry): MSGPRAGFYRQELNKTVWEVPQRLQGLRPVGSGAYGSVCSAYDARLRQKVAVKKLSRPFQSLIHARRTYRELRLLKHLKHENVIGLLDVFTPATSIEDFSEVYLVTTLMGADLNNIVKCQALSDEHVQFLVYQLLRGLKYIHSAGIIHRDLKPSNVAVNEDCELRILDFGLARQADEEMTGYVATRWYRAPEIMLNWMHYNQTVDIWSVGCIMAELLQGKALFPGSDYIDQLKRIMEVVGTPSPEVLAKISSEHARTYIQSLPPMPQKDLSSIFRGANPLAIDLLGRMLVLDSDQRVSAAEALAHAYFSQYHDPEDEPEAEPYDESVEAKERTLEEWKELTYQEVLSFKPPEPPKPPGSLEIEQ
# test.parameters: at 0.1 µM
result.type: inhibition (%)
Supply the numeric figure in %, leaving out any unit text.

Req: # query: inhibition of entry `NS(=O)(=O)c1ccc(N/N=C2\C(=O)Nc3ccc(Cl)cc32)cc1`
Resp: 3.71

----------
# target.or.system: Insulin receptor (Homo sapiens) (UniProt P06213);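 further: reported values are averages of replicate inhibition measurements against the insulin receptor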
# Sequence (P06213 28-758 limits assumed): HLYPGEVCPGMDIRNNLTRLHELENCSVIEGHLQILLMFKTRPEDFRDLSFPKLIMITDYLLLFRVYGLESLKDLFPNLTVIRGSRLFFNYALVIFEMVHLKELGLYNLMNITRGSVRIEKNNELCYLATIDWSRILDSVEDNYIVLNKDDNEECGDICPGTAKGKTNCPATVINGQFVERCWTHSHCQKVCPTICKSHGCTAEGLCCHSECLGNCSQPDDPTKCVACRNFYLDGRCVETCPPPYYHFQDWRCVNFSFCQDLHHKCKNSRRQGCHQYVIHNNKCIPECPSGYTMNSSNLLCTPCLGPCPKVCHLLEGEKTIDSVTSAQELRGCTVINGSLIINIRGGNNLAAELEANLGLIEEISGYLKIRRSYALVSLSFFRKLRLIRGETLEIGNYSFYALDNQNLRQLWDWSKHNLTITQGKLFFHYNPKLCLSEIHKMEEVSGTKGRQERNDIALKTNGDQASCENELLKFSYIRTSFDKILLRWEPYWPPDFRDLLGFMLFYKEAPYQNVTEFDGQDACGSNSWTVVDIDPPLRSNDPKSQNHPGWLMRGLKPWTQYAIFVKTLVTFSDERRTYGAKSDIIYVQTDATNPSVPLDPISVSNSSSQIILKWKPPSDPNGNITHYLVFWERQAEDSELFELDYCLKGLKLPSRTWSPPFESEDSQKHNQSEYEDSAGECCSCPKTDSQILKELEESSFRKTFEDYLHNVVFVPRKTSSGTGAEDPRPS
# Sequence (P06213 763-1382 limits assumed): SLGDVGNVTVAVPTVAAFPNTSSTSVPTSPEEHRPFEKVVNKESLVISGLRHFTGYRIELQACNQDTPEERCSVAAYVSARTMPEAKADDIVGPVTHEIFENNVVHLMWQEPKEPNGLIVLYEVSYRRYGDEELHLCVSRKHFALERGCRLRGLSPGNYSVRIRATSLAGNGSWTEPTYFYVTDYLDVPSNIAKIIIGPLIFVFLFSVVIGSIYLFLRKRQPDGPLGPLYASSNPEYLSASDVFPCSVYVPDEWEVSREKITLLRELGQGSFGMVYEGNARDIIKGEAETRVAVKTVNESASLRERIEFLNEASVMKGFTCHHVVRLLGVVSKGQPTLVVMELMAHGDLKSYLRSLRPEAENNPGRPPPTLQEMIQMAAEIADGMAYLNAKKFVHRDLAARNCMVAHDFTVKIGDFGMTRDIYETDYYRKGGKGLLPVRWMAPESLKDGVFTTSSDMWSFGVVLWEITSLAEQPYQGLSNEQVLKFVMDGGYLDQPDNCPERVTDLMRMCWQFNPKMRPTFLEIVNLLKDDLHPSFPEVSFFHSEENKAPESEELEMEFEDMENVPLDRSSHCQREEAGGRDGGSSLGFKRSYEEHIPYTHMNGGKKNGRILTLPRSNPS
# test.parameters: at 0.1 µM
Recorded inhibition, one value per entry.
All answers are understood in %, so give the number only.

{"item.smiles": "NS(=O)(=O)c1cccc(-c2cc3ccncc3cc2OCc2ccccc2)c1", "inhibition / %": 2.6}
{"item.smiles": "[O-][S+]1CCN(Cc2ccc(-c3ccc4ncnc(Nc5ccc(OCc6ccccc6)c(Cl)c5)c4c3)o2)CC1", "inhibition / %": 2}
{"item.smiles": "Nc1nccc(C#Cc2cncnc2Nc2ccc(OCc3cccc(F)c3)c(Cl)c2)n1", "inhibition / %": 3.13}
{"item.smiles": "C[C@@H](Oc1cc(-n2cnc3ccc(OC[C@@H](O)CO)cc32)sc1C(N)=O)c1ccccc1Cl", "inhibition / %": 0.87}

Let us move to another entry and its inhibition.
Req: What value of inhibition has been reported for the following compound? `COc1cc2ncnc(Nc3ccc4c(cnn4Cc4ccccc4)c3)c2cc1OC`
Resp: 2.75

----------
# target.or.system: Proto-oncogene tyrosine-protein kinase Src (Homo sapiens) (UniProt P12931);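 further: each value is an averaged percent inhibition of SRC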
# Sequence (P12931 2-536 limits assumed): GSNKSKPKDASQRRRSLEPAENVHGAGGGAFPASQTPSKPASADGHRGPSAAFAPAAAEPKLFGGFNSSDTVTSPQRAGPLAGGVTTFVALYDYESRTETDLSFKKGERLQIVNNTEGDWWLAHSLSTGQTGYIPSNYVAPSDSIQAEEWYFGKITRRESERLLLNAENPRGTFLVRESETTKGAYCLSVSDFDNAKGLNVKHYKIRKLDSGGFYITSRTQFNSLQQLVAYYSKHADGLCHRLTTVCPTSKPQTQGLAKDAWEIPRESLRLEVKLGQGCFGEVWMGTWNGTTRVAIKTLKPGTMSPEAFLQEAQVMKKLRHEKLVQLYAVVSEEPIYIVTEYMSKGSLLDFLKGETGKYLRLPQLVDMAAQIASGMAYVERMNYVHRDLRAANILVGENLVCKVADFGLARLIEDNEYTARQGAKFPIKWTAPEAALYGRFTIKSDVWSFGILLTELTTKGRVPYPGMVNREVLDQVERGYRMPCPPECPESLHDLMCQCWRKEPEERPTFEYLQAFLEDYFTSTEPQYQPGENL
# test.parameters: at 1 µM
// reported inhibition for each item listed
Give the quantity in %, number only.

{"item.smiles": "CC(C)c1ccc(Nc2nccc(-c3cnn4ncccc34)n2)cc1", "units.label": "%", "inhibition": 13.4}
{"item.smiles": "Cc1ccc(O)cc1Nc1ccnc2ccc(S(C)(=O)=O)cc12", "units.label": "%", "inhibition": 95.1}
{"item.smiles": "COc1cccc(-n2ncc3c(N/N=C/c4ccc(S(C)(=O)=O)cc4)ncnc32)c1", "units.label": "%", "inhibition": 77.4}
{"item.smiles": "NC(=O)c1cccc(Nc2nccc(Nc3cccc(F)c3)n2)c1", "units.label": "%", "inhibition": 64.8}
{"item.smiles": "Cc1ccc(Nc2ccnc(Nc3cccc(C(N)=O)c3)n2)cc1O", "units.label": "%", "inhibition": 90.7}
{"item.smiles": "N#Cc1cccc(Nc2nccc(-c3cnn4ncccc34)n2)c1", "units.label": "%", "inhibition": 66}

Req: Any idea what inhibition was measured for `NS(=O)(=O)c1ccc(Nc2cc(-c3cccc(O)c3)n[nH]2)cc1` ?
Resp: 11.9

Req: What value of inhibition has been recorded for this entry: `Cc1ccc(NC(=O)CC2CC2)cc1-c1ccc(C(=O)NCC2CC2)cc1`
Resp: 8.28

Req: Item under review: `OCc1ccc(-c2nc(-c3ccccn3)c(-c3ccc4c(c3)OCO4)[nH]2)cc1` . Reported inhibition?
Resp: 10.6

Req: Fill in: inhibition of `Cc1ccc2c(-c3ccnc(Nc4ccc5c(c4)OCCO5)n3)c(-c3ccc(C(F)(F)F)cc3)nn2n1` is ___
Resp: 5.52

Req: Give its inhibition value. Item: `O=C1Nc2ccccc2/C1=C/Nc1ccc2[nH]c(=O)[nH]c2c1`
Resp: 31

----------
# target.or.system: Ribosomal protein S6 kinase alpha-3 (Homo sapiens) (UniProt P51812);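 further: reported value is a mean inhibition figure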
# Sequence (P51812 whole entry): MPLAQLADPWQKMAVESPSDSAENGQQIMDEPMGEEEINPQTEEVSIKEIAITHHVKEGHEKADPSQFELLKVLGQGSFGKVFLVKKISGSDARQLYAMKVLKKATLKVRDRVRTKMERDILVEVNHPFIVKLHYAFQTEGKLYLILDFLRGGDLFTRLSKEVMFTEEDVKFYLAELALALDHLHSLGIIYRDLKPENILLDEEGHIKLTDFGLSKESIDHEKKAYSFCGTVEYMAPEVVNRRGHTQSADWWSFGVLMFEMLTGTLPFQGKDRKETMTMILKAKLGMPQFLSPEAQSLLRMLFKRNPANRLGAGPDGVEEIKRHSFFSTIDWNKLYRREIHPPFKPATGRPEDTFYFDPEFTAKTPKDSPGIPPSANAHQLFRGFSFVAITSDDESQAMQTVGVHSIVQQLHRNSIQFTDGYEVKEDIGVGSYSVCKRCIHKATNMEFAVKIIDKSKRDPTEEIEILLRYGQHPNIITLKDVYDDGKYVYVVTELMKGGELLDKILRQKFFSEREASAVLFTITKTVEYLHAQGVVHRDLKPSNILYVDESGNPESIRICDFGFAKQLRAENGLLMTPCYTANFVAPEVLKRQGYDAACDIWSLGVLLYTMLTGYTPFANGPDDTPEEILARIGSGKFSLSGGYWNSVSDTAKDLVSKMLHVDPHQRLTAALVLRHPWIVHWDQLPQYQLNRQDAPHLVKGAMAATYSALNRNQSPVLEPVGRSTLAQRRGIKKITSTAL
# test.parameters: at 0.1 µM
result.type: inhibition (%)
Only the number, expressed in %, is required.

Req: Could you tell me which inhibition is on file for `COC(=O)c1ccc2c(c1)C(=Cc1cc(Br)c(O)c(Br)c1)C(=O)N2` ?
Resp: 1.97

Req: Which measured inhibition value corresponds to `c1ccc(Cc2nc3ccc(Nc4ncnc5ccccc45)cc3[nH]2)cc1` ?
Resp: 0.88

Req: For `Cc1cc(Cl)cc2c1NC(=O)C2=NNc1ccc(S(N)(=O)=O)cc1` , what is its reported inhibition?
Resp: 1.6

Req: # input compound: `COc1ccc(-c2nn3ncccc3c2-c2ccnc(Nc3cccc(C(F)(F)F)c3)n2)cc1` ; wanted: its inhibition
Resp: 1.27

Req: Param item = `CC(C)c1ccc2c(c1)NC(=O)/C2=N/Nc1ccc(S(N)(=O)=O)cc1` ; retrieve measured inhibition.
Resp: -0.56

Req: Name the reported inhibition value associated with the compound `OCc1ccc(-c2nc(-c3ccccn3)c(-c3ccc4c(c3)OCO4)[nH]2)cc1`
Resp: 0.79

Req: Could you tell me which inhibition is on file for `[O-][S+]1CCN(Cc2ccc(-c3ccc4ncnc(Nc5ccc(OCc6ccccc6)c(Cl)c5)c4c3)o2)CC1` ?
Resp: -1.03

Req: Which inhibition value is on record for `Cc1nc(-c2ccccc2)n2nc(NCCCN3CCOCC3)ncc12` ?
Resp: 2.6

Req: Requested read-out: inhibition. Entry: `COc1cc2ncnc(Nc3ccc4c(cnn4Cc4ccccc4)c3)c2cc1OC`
Resp: 0.6

----------
# target.or.system: Serine/threonine-protein kinase SIK2 (Homo sapiens) (UniProt Q9H0K1)
# test.parameters: at 1 µM
result.type: inhibition (%)
The answer is to be given in %; state only the numeric part.

Worked set:
{"item.smiles": "CCS(=O)(=O)c1ccc(OC)c(Nc2nccc(N(C)c3ccc4c(C)n[nH]c4c3)n2)c1", "units.label": "%", "inhibition": 7.47}
{"item.smiles": "COc1cc2ncnc(Nc3ccc4c(cnn4Cc4ccccc4)c3)c2cc1OC", "units.label": "%", "inhibition": 3.7}
{"item.smiles": "Cc1cc(Cl)cc2c1NC(=O)C2=NNc1ccc(S(N)(=O)=O)cc1", "units.label": "%", "inhibition": -2.05}
{"item.smiles": "c1ccc(Cc2nc3ccc(Nc4ncnc5ccccc45)cc3[nH]2)cc1", "units.label": "%", "inhibition": 7.91}
{"item.smiles": "CCS(=O)(=O)c1ccc(OC)c(Nc2ncc(-c3cccc(OC)c3)o2)c1", "units.label": "%", "inhibition": 31.2}

Req: Fill in the recorded inhibition for this compound, with Serine/threonine-protein kinase SIK2 (Homo sapiens) (UniProt Q9H0K1) as test system: `COc1cc2ncnc(Nc3ccc(C)c(O)c3)c2cc1OC`
Resp: 18.9

Req: Serine/threonine-protein kinase SIK2 (Homo sapiens) (UniProt Q9H0K1) / inhibition / `NS(=O)(=O)c1cccc(Nc2cc(-c3ccc(F)cc3)n[nH]2)c1` : value?
Resp: 37.9

Req: State its inhibition on Serine/threonine-protein kinase SIK2 (Homo sapiens) (UniProt Q9H0K1): `CN1CCN(C(=O)c2ccc(NC(=O)Nc3ccc(N(C)c4ccnc(Nc5ccc(CS(C)(=O)=O)cc5)n4)cc3)cc2)CC1`
Resp: 17.4

Req: For Serine/threonine-protein kinase SIK2 (Homo sapiens) (UniProt Q9H0K1), provide inhibition of `N#Cc1c(NC(=O)c2ccccc2F)sc2c1CCCC2` please.
Resp: -0.94

Req: # returns recorded inhibition (system: Serine/threonine-protein kinase SIK2 (Homo sapiens) (UniProt Q9H0K1)) for `O=C(Nc1ccc(Oc2ccc3[nH]c(NC(=O)c4ccco4)nc3c2)cc1)Nc1cc(C(F)(F)F)ccc1F`
Resp: 0.5

Req: Form: Entry = `Cc1ccc2c(-c3ccnc(Nc4cccc(C(F)(F)F)c4)n3)c(-c3ccccc3)nn2n1` | System = Serine/threonine-protein kinase SIK2 (Homo sapiens) (UniProt Q9H0K1) | inhibition = ____
Resp: 9.81

Req: Form field: inhibition recorded for `CC(C)c1ccc(Nc2nccc(-c3cnn4ncccc34)n2)cc1` with Serine/threonine-protein kinase SIK2 (Homo sapiens) (UniProt Q9H0K1) (enter value)
Resp: 11.3

Req: Form field - read-out: inhibition; system: Serine/threonine-protein kinase SIK2 (Homo sapiens) (UniProt Q9H0K1); submitted item: `CS(=O)(=O)Nc1cccc(-c2ccc3c(NC(=O)C4CC4)n[nH]c3c2)c1`;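 further: mean inhibition of SNF1LK2 (QIK) kinase activity, from the GSK PKIS screening panel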
Resp: 9.32

----------
# Tested on: Epidermal growth factor receptor (Homo sapiens), P00533 [L858R]
# Sequence (P00533 whole entry L858R): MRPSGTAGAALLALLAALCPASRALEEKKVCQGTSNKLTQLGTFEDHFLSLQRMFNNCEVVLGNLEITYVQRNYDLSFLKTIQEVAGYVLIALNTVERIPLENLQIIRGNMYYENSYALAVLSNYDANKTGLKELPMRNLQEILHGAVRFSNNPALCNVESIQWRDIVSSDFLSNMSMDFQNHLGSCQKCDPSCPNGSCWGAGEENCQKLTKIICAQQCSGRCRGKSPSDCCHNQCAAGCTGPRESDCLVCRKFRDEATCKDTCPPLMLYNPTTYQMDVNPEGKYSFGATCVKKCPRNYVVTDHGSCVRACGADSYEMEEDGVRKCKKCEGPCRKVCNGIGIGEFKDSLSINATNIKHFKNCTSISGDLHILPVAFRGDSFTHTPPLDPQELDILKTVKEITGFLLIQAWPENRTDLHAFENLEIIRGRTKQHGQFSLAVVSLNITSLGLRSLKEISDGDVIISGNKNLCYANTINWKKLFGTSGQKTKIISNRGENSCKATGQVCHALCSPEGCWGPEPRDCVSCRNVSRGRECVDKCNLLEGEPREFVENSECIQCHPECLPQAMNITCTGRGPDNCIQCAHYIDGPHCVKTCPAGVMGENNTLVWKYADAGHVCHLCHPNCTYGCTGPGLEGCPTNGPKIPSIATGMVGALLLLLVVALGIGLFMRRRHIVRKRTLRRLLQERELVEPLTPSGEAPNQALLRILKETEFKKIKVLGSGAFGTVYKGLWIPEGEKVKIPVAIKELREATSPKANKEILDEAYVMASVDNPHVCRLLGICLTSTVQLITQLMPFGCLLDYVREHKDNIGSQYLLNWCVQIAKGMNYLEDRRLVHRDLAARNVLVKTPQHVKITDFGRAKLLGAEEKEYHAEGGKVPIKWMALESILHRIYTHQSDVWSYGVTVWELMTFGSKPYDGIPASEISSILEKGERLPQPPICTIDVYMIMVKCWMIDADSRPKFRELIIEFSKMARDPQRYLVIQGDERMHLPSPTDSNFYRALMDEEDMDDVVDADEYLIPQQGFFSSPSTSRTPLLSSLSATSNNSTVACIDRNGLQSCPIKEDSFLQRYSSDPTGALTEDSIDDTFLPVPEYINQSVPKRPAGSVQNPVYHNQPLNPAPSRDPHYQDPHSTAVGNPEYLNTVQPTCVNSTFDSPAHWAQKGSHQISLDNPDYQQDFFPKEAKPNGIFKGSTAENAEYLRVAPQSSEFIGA
# test.parameters: at 1 µM
Form field: inhibition (one value per entry).
Write down the numeric answer in % and omit the unit.

Answered examples (2):
{"item.smiles": "COc1cc(/C=N/Nc2ncnc3c2cnn3C(C)C)ccc1O", "inhibition [%]": 12.2}
{"item.smiles": "COc1cc2ncnc(Nc3ccc4c(cnn4Cc4ccccc4)c3)c2cc1OC", "inhibition [%]": 94.4}

Req: Bench note: what inhibition did `Cc1cc(-c2ccccn2)cc(C)c1/C=C/c1cncc(-c2nn[nH]n2)c1` show?
Resp: 4.85

Req: Consider the compound shown here: `NS(=O)(=O)c1ccc(Nc2cc(-c3cccc(O)c3)n[nH]2)cc1` What is its recorded inhibition?
Resp: 5.18

Req: Which inhibition reading was recorded for the compound `CCn1c(-c2nonc2N)nc2ccc(F)cc21` ?
Resp: 12.7

Req: Request the reported inhibition associated with `Cc1ccc(C(=O)NC2CC2)cc1-c1ccc2[nH]ncc2c1`
Resp: -2.39

Req: What value of inhibition has been reported for the following compound? `NS(=O)(=O)c1cccc(Nc2cc(-c3ccc(F)cc3)n[nH]2)c1`
Resp: 6.63

Req: I would be grateful if you could share the reported inhibition for `Nc1ccc(C#Cc2cncnc2Nc2ccc(OCc3cccc(F)c3)c(Cl)c2)cc1` .
Resp: 35.2

Req: Quick check: inhibition of `Cc1cc(O)cc(C)c1/C=C/c1cncc(C(=O)N(C)C)c1` ?
Resp: 3.1

Req: Requested read-out: inhibition. Entry: `Oc1cccc(-c2nc(-c3ccccc3)[nH]c2-c2ccncc2)c1`
Resp: 19.7

Req: Look up inhibition for this compound: `NS(=O)(=O)c1cccc(-c2cc3ccncc3cc2OCc2ccccc2)c1`
Resp: 6.99
